# tested.system: furin, P09958;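 note: purified furin at 1:10 enzyme:substrate in 50 mM HEPES pH 7.5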
# Sequence (P09958 whole entry): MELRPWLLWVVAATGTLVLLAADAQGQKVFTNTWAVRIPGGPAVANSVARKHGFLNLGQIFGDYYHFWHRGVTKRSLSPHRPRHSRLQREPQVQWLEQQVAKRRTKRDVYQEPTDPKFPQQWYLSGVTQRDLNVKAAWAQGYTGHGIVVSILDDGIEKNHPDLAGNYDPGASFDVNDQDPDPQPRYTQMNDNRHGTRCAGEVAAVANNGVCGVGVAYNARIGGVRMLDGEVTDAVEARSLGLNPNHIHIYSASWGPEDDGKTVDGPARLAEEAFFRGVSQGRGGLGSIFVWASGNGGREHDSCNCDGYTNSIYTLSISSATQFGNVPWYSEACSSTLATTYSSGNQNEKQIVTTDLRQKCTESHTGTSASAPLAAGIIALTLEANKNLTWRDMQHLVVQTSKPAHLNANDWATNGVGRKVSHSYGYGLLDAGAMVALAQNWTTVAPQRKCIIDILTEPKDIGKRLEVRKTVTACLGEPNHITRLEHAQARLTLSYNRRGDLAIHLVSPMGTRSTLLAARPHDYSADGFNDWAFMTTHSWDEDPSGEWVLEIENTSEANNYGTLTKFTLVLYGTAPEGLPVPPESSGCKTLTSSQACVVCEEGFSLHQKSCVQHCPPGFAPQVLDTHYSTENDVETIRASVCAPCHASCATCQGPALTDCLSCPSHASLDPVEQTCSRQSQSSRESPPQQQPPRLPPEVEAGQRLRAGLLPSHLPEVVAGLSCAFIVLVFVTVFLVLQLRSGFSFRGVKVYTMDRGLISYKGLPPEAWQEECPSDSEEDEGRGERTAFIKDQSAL
# protocol.text: furin cleavage Z-score vs untreated control; higher = more cleavage, active = 3.5 or more, inactive = 1 or less, 8 variable residues between constant flanks
# measurement.conditions: 30 min
The list shows a part of the results. The hit rate among all sequences tested is not known here.
Possible outcomes: class 1 = active, class 0 = inactive

{"columns": ["sequence.data", "classification"],
 "data": [
  ["CAVVCQSMSYAGNASASA [HC99]", "class 0"],
  ["CAKERRYARKAGNASASA [FS-257]", "class 1"],
  ["CARRRRDHHMAGNASASA [FS-1838]", "class 1"],
  ["CARLEREKRAAGNASASA [FS-859]", "class 1"],
  ["CARRRRRPGGAGNASASA [FS-3065]", "class 0"],
  ["CARRRKDDYAAGNASASA [FS-2073]", "class 0"]
]}

Origin of values: the supplement of paper PMC3545927
